B1: Peroxisome proliferator-activated receptor delta, residues 71 to 145; numbered along this chain, Q03181 (parent)
chain: NMECRVCGDKASGFHYGVHACEGCKGFFRRTIRMKLEYEKCERSCKIQKKNRNKCQYCRFQKCLALGMSHNAIRF

- Variants of: B1
- TEST_DESCRIPTION: abundance fitness (aPCA) (normalised: wild type 0, dead -1); higher = more abundant; growth selection in yeast, the domain comes from the species named
- EXPERIMENTAL_CONTEXT: Homo sapiens
Returns one of condition met or condition not met; condition met when abundance fitness is >= -0.5.

Worked cases, answers included:
>>> df
   alteration     discrete_label
0        C41L  condition not met
1         E3A      condition met
2         R5S      condition met
3        Y57N  condition not met
4         D9E      condition met

Input: Decide: is the reported value of abundance fitness for I32Y equal to or greater than -0.5?
Output: condition met

Input: Decide: is the reported value of abundance fitness for C55W equal to or greater than -0.5?
Output: condition not met
